measurement.context: female, SCID, mouse, in vivo, 24 h
Give Tumor Conc. for every item shown.

Some solved cases for reference:
>>> experimental_result("CC(C)c1cc(-c2nnc(O)n2-c2ccc(CC3CCN(CC(=O)Nc4cccc5c4CN(C4CCC(=O)NC4=O)C5=O)CC3)cc2)c(O)cc1O (stereo not shown)")
"2.78 nmol/g of tissue"
>>> experimental_result("Nc1cccc2c1CN(C1CCC(=O)NC1=O)C2=O (stereo not shown) [Lenalidomide, lenalidomide, reference compound]")
"0.0574 nmol/g of tissue"
>>> experimental_result("CCc1c2c(nc3ccc(OC(=O)N4CCC(CCn5ccc6cc(-n7c(O)nnc7-c7cc(C(C)C)c(O)cc7O)ccc65)CC4)cc13)-c1cc3c(c(=O)n1C2)COC(=O)[C@]3(O)CC")
"0.203 nmol/g of tissue"

Now consider the entry below.
Recorded Tumor Conc. for CC(C)c1cc(-c2nnc(O)n2-c2ccc3c(ccn3CCC3CCNCC3)c2)c(O)cc1O , please? 0.404 nmol/g of tissue

###

measurement.notes: Artificial membrane permeability assay (PAMPA)
measurement.context: incubation 5 h, first table
reported.metric: Mass Retention (%)
Answers are plain numbers, in %.

Some solved cases for reference:
>>> experimental_result("CC(=O)O[C@@]12CO[C@@H]1C[C@H](O)[C@@]1(C)C(=O)[C@H](O)C3=C(C)[C@@H](OC(=O)[C@H](O)[C@@H](NC(=O)OC(C)(C)C)c4ccccc4)C[C@@](O)([C@@H](OC(=O)c4ccccc4)[C@H]21)C3(C)C [Docetaxel, docetaxel, reference compound]")
17.6
>>> experimental_result("CCNC(=O)c1nnc(-c2cc(C(C)C)c(O)cc2O)n1-c1ccc(CN2CCC(C(=O)N[C@@H](CC(C)C)C(=O)Nc3cccc4c3CN(C3CCC(=O)NC3=O)C4=O)CC2)cc1 (stereo partly shown) [SDC-TRAP-0193]")
10.2
>>> experimental_result("CCc1c2c(nc3ccc(OC(=O)N4CCC[C@H]4C(=O)N4CCC(CCn5ccc6cc(-n7c(O)nnc7-c7cc(C(C)C)c(O)cc7O)ccc65)CC4)cc13)-c1cc3c(c(=O)n1C2)COC(=O)[C@]3(O)CC [SDC-TRAP-0210]")
34.8
>>> experimental_result("CC(C)c1cc(-c2nnc(C(=O)NCCCCCS(N)(=O)=O)n2-c2ccc(CN3CCOCC3)cc2)c(O)cc1O [SDC-TRAP-0232]")
21.0
>>> experimental_result("COc1cccc2c1C(=O)c1c(O)c3c(c(O)c1C2=O)C[C@@](O)(C(=O)CO)C[C@@H]3O[C@H]1C[C@H](N)[C@H](O)[C@H](C)O1 [Doxorubicin, doxorubicin, reference compound]")
21.0

// input: 5 molecules below; output: Mass Retention for each
1. CCNC(=O)c1nnc(-c2cc(C(C)C)c(O)cc2O)n1-c1ccc2c(c1)CN(Cc1cc(OC)c(OC(=O)Nc3cccc4c3CN(C3CCC(=O)NC3=O)C4=O)c(OC)c1)C2 (stereo not shown) [SDC-TRAP-0196]
2. CC(C)c1cc(-c2nnc(O)n2-c2ccc3c(ccn3CCOCCNC(=O)CCn3cc(F)c(=O)[nH]c3=O)c2)c(O)cc1O [SDC-TRAP-0048]
3. CCNC(=O)c1nnc(-c2cc(C(C)C)c(O)cc2O)n1-c1ccc(CN2CCC(C(=O)N3CCN(c4cc(C)c(OC(=O)Nc5cccc6c5CN(C5CCC(=O)NC5=O)C6=O)c(C)c4)CC3)CC2)cc1 (stereo not shown) [SDC-TRAP-0195]
4. CC(C)c1cc(-c2nnc(O)n2-c2ccc(CN3CCN(C(=O)CCn4cc(F)c(=O)[nH]c4=O)CC3)cc2)c(O)cc1O [SDC-TRAP-0049]
5. CC(C)c1cc(-c2nnc(O)n2-c2ccc3c(ccn3CCNC(=O)CCCCCNC(=O)CCCC[C@H]3SCC4NC(=O)NC43)c2)c(O)cc1O (stereo in doubt) [SDC-TRAP-0234]

[22.3, 10.8, 27.1, 14.1, 9.56]
